Data credit: ChEMBL document CHEMBL3588782

Measured MIC, listed per entry.
system: Staphylococcus aureus; assay: Antibacterial activity against methicillin-resistant Staphylococcus aureus isolate AG 039 by broth microdilution assay; format: functional
Endpoint: MIC (µg/mL)

{"Compound": "NC[C@@H]1O[C@H](O[C@H]2[C@@H](O)[C@H](O[C@@H]3[C@@H](O)[C@H](N)C[C@H](N)[C@H]3O[C@H]3O[C@H](CO)[C@@H](OCO[C@H]4O[C@H](CO)[C@@H](O)[C@H](O)[C@H]4O)[C@H](O)[C@H]3N)O[C@@H]2CO)[C@H](N)[C@@H](O)[C@@H]1O", "Measured on": "Staphylococcus aureus", "Uom": "µg/mL", "Prefix operator": "≥", "Value observed": 128}
{"Compound": "NC[C@@H]1O[C@H](O[C@H]2[C@@H](O)[C@H](O[C@@H]3[C@@H](O)[C@H](N)C[C@H](N)[C@H]3O[C@H]3O[C@@H]4COC(CCc5ccccc5)O[C@H]4[C@H](O)[C@H]3N)O[C@@H]2CO)[C@H](N)[C@@H](O)[C@@H]1O (some centres undefined)", "Measured on": "Staphylococcus aureus", "Uom": "µg/mL", "Prefix operator": "=", "Value observed": 8}
{"Compound": "NC[C@@H]1O[C@H](O[C@H]2[C@@H](O)[C@H](O[C@@H]3[C@@H](O)[C@H](N)C[C@H](N)[C@H]3O[C@H]3O[C@H](CO)[C@@H](O[C@H]4O[C@H](CO)[C@@H](O)[C@H](O)[C@H]4O)[C@H](O)[C@H]3N)O[C@@H]2CO)[C@H](N)[C@@H](O)[C@@H]1O", "Measured on": "Staphylococcus aureus", "Uom": "µg/mL", "Prefix operator": "=", "Value observed": 32}
{"Compound": "NC[C@@H]1O[C@H](O[C@H]2[C@@H](O)[C@H](O[C@@H]3[C@@H](O)[C@H](N)C[C@H](N)[C@H]3O[C@H]3O[C@H](CO)[C@@H](OCCCc4ccccc4)[C@H](O)[C@H]3N)O[C@@H]2CO)[C@H](N)[C@@H](O)[C@@H]1O", "Measured on": "Staphylococcus aureus", "Uom": "µg/mL", "Prefix operator": "=", "Value observed": 8}
{"Compound": "NC[C@@H]1O[C@H](O[C@H]2[C@@H](O)[C@H](O[C@@H]3[C@@H](O)[C@H](N)C[C@H](N)[C@H]3O[C@H]3O[C@H](CO)[C@@H](O[C@H]4O[C@H](CO)[C@@H](O)[C@H](O)[C@@H]4O)[C@H](O)[C@H]3N)O[C@@H]2CO)[C@H](N)[C@@H](O)[C@@H]1O", "Measured on": "Staphylococcus aureus", "Uom": "µg/mL", "Prefix operator": "≥", "Value observed": 128}
{"Compound": "CN[C@@H]1[C@@H](O[C@H]2O[C@H](CO)[C@@H](N)[C@H](O)[C@H]2O)O[C@H]2C[C@@H](N)[C@@H](O[C@H]3[C@H](O)[C@@H](O)[C@H](N)C[C@@H]3N)O[C@@H]2[C@@H]1O [APRAMYCIN]", "Measured on": "Staphylococcus aureus", "Uom": "µg/mL", "Prefix operator": "=", "Value observed": 8}
{"Compound": "NC[C@@H]1O[C@H](O[C@H]2[C@@H](O)[C@H](O[C@@H]3[C@@H](O)[C@H](N)C[C@H](N)[C@H]3O[C@H]3O[C@H](CO)[C@@H](O[C@@H]4O[C@H](CO)[C@H](O)[C@H](O)[C@H]4O)[C@H](O)[C@H]3N)O[C@@H]2CO)[C@H](N)[C@@H](O)[C@@H]1O", "Measured on": "Staphylococcus aureus", "Uom": "µg/mL", "Prefix operator": "≥", "Value observed": 128}
{"Compound": "NC[C@@H]1O[C@H](O[C@H]2[C@@H](O)[C@H](O[C@@H]3[C@@H](O)[C@H](N)C[C@H](N)[C@H]3O[C@H]3O[C@H](CO)[C@@H](O[C@H]4O[C@H](CO)[C@H](O)[C@H](O)[C@H]4O)[C@H](O)[C@H]3N)O[C@@H]2CO)[C@H](N)[C@@H](O)[C@@H]1O", "Measured on": "Staphylococcus aureus", "Uom": "µg/mL", "Prefix operator": "=", "Value observed": 128}
{"Compound": "NC[C@@H]1O[C@H](O[C@H]2[C@@H](O)[C@H](O[C@@H]3[C@@H](O)[C@H](N)C[C@H](N)[C@H]3O[C@H]3O[C@H](CO)[C@@H](O)[C@H](O)[C@H]3N)O[C@@H]2CO)[C@H](N)[C@@H](O)[C@@H]1O [PAROMOMYCIN]", "Measured on": "Staphylococcus aureus", "Uom": "µg/mL", "Prefix operator": ">", "Value observed": 256}
